- experimental details: Concentration required to cause 50% relaxation of maximal contraction in circumferential rabbit aorta strips in response to KCl (100 mM)
- Type: functional, tissue-based, Oryctolagus cuniculus
- condition set: Oryctolagus cuniculus, Aorta
endpoint: IC50 (nM)

[[record]]
smiles_representation = "COc1ccc([C@@H]2Cc3c(C)cccc3N(CCN(C)C)C(=O)[C@@H]2OC(C)=O)cc1"
value_observed = 2500

[[record]]
smiles_representation = "COc1ccc([C@@H]2Cc3ccccc3N(CCN(C)C)C(=O)[C@@H]2C)cc1"
value_observed = 1100

[[record]]
smiles_representation = "COc1ccc([C@H]2CC(=O)N(CCN(C)C)c3cccc(C(F)(F)F)c3C2)cc1"
value_observed = 1100

[[record]]
smiles_representation = "COc1ccc([C@@H]2Cc3c(OC)cccc3N(CCN(C)C)C(=O)[C@@H]2C)cc1"
value_observed = 420

[[record]]
smiles_representation = "C=CC[C@H]1C(=O)N(CCN(C)C)c2cccc(C(F)(F)F)c2C[C@H]1c1ccc(OC)cc1"
value_observed = 100


====

- target of assay: Voltage-gated L-type calcium channel (Rattus norvegicus, UniProt P22002+Q02485+P27732)
- experimental details: Percentage decrease in blood pressure at a dose of 135 uM/kg for 12-18 hr in spontaneously hypertensive rats.
- Format: functional, tissue-based
The entries below come with measured Decrease in blood pressure values attached.
endpoint: Decrease in blood pressure (%)

[[record]]
compound = "COc1cccc([C@@H]2Cc3cc(Cl)ccc3N(CCN(C)C)C(=O)[C@@H]2OC(C)=O)c1"
endpoint = "Decrease in blood pressure"
value_observed = 3

[[record]]
compound = "COc1ccc([C@@H]2Cc3cc(OCc4ccccc4)ccc3N(CCN(C)C)C(=O)[C@@H]2OC(C)=O)cc1"
endpoint = "Decrease in blood pressure"
value_observed = 11

[[record]]
compound = "CC[C@H]1C(=O)N(CCN(C)C)c2cccc(C(F)(F)F)c2C[C@H]1c1ccc(OC)cc1"
endpoint = "Decrease in blood pressure"
value_observed = 15

[[record]]
compound = "COc1ccc([C@@H]2Cc3c(cccc3C(F)(F)F)N(CCN(C)CCCCc3ccccc3)C(=O)[C@@H]2OC(C)=O)cc1"
endpoint = "Decrease in blood pressure"
value_observed = 24

[[record]]
compound = "COc1ccc([C@@H]2Cc3c(cccc3[N+](=O)[O-])N(CCN(C)C)C(=O)[C@@H]2OC(C)=O)cc1"
endpoint = "Decrease in blood pressure"
value_observed = 14

[[record]]
compound = "CNc1ccc([C@@H]2Cc3c(cccc3C(F)(F)F)N(CCN(C)C)C(=O)[C@@H]2C)cc1"
endpoint = "Decrease in blood pressure"
value_observed = 20

[[record]]
compound = "COc1ccc([C@@H]2Cc3c(cccc3C(F)(F)F)N(CCN(C(C)C)C(C)C)C(=O)[C@@H]2C)cc1"
endpoint = "Decrease in blood pressure"
value_observed = 8

[[record]]
compound = "C#CCN(C)CCN1C(=O)[C@H](OC(C)=O)[C@H](c2ccc(OC)cc2)Cc2c1cccc2C(F)(F)F"
endpoint = "Decrease in blood pressure"
value_observed = 25

[[record]]
compound = "COc1ccc([C@@H]2Cc3cc(OC)ccc3N(CCN(C)C)C(=O)[C@@H]2OC(C)=O)cc1"
endpoint = "Decrease in blood pressure"
value_observed = 10

[[record]]
compound = "CCOC(=O)c1cccc2c1C[C@@H](c1ccc(OC)cc1)[C@@H](OC(C)=O)C(=O)N2CCN(C)C"
endpoint = "Decrease in blood pressure"
value_observed = 5

[[record]]
compound = "COc1ccc([C@@H]2Cc3cc(OC(F)F)ccc3N(CCN(C)C)C(=O)[C@@H]2OC(C)=O)cc1"
endpoint = "Decrease in blood pressure"
value_observed = 16

[[record]]
compound = "COc1ccc([C@@H]2Cc3c(ccc(Br)c3OC)N(CCN(C)C)C(=O)[C@@H]2C)cc1"
endpoint = "Decrease in blood pressure"
value_observed = 14

[[record]]
compound = "COc1ccc([C@@H]2Cc3c(Cl)cccc3N(CCN(C)C)C(=O)[C@@H]2OC(C)=O)cc1"
endpoint = "Decrease in blood pressure"
value_observed = 11

[[record]]
compound = "CNCCN1C(=O)[C@H](OC(C)=O)[C@H](c2ccc(OC)cc2)Cc2c1cccc2C(F)(F)F"
endpoint = "Decrease in blood pressure"
value_observed = 32

[[record]]
compound = "COc1ccc([C@@H]2Cc3c(cccc3C(F)(F)F)N(CCN3CCCC3)C(=O)[C@@H]2C)cc1"
endpoint = "Decrease in blood pressure"
value_observed = 11

[[record]]
compound = "COc1ccc([C@@H]2Cc3c(C#N)cccc3N(CCN(C)C)C(=O)[C@@H]2OC(C)=O)cc1"
endpoint = "Decrease in blood pressure"
value_observed = 9

[[record]]
compound = "COc1ccc([C@@H]2Cc3cc(C(F)(F)F)ccc3N(CCN(C)C)C(=O)[C@@H]2SC(C)=O)cc1"
endpoint = "Decrease in blood pressure"
value_observed = 23

[[record]]
compound = "CCC[C@H]1C(=O)N(CCN(C)C)c2cccc(C(F)(F)F)c2C[C@H]1c1ccc(OC)cc1"
endpoint = "Decrease in blood pressure"
value_observed = 24

[[record]]
compound = "COc1ccc([C@@H]2Cc3c(OC)cccc3N(CCN(C)C)C(=O)[C@@H]2OC(C)=O)cc1"
endpoint = "Decrease in blood pressure"
value_observed = 1

[[record]]
compound = "CCc1ccc([C@@H]2Cc3c(cccc3C(F)(F)F)N(CCN(C)C)C(=O)[C@@H]2C)cc1"
endpoint = "Decrease in blood pressure"
value_observed = 13

[[record]]
compound = "CNC(=O)CN1C(=O)[C@H](OC(C)=O)[C@H](c2ccc(OC)cc2)Cc2c1cccc2C(F)(F)F"
endpoint = "Decrease in blood pressure"
value_observed = 10

[[record]]
compound = "COc1ccc([C@@H]2Cc3c(cccc3C(F)(F)F)N(CCN(C)C)C(=O)[C@@H]2OC(C)=O)cc1"
endpoint = "Decrease in blood pressure"
value_observed = 20

[[record]]
compound = "COc1ccc([C@@H]2Cc3c(cccc3C(F)(F)F)N(CCN(C)C)C(=O)[C@@H]2C)cc1OC"
endpoint = "Decrease in blood pressure"
value_observed = 5

[[record]]
compound = "COc1ccccc1[C@@H]1Cc2cc(Cl)ccc2N(CCN(C)C)C(=O)[C@@H]1OC(C)=O"
endpoint = "Decrease in blood pressure"
value_observed = 0

[[record]]
compound = "COc1ccc([C@@H]2Cc3c(cccc3C(F)(F)F)N(CCNC(C)C)C(=O)[C@@H]2C)cc1"
endpoint = "Decrease in blood pressure"
value_observed = 10

[[record]]
compound = "COc1ccc([C@@H]2Cc3cc(Sc4ccccc4)ccc3N(CCN(C)C)C(=O)[C@@H]2OC(C)=O)cc1"
endpoint = "Decrease in blood pressure"
value_observed = 19

[[record]]
compound = "CSc1ccc([C@@H]2Cc3c(cccc3C(F)(F)F)N(CCN(C)C)C(=O)[C@@H]2C)cc1"
endpoint = "Decrease in blood pressure"
value_observed = 5

[[record]]
compound = "COc1ccc([C@@H]2Cc3cc(SC)ccc3N(CCN(C)C)C(=O)[C@@H]2OC(C)=O)cc1"
endpoint = "Decrease in blood pressure"
value_observed = 21

[[record]]
compound = "CNC(=O)Oc1ccc2c(c1)C[C@@H](c1ccc(OC)cc1)[C@@H](OC(C)=O)C(=O)N2CCN(C)C"
endpoint = "Decrease in blood pressure"
value_observed = 12

[[record]]
compound = "COc1ccc([C@H]2CC(=O)N(CCN(C)C)c3cccc(C(F)(F)F)c3C2)cc1"
endpoint = "Decrease in blood pressure"
value_observed = 3

[[record]]
compound = "COc1ccc([C@@H]2Cc3c(cccc3C(F)(F)F)N(CC[N+](C)(C)C)C(=O)[C@@H]2C)cc1.[I-]"
endpoint = "Decrease in blood pressure"
value_observed = 21

[[record]]
compound = "COc1ccc([C@@H]2Cc3c(C(N)=O)cccc3N(CCN(C)C)C(=O)[C@@H]2OC(C)=O)cc1"
endpoint = "Decrease in blood pressure"
value_observed = 12

[[record]]
compound = "COc1ccc([C@@H]2Cc3c(cccc3C(F)(F)F)N(CC(C)N(C)C)C(=O)[C@@H]2C)cc1 (stereo in doubt; 15l)"
endpoint = "Decrease in blood pressure"
value_observed = 14

[[record]]
compound = "COc1ccc([C@@H]2Cc3c(cccc3C(F)(F)F)N(CCCN(C)C)C(=O)[C@@H]2C)cc1"
endpoint = "Decrease in blood pressure"
value_observed = 24


====

The entries below come with measured Decrease in blood pressure values attached.
- target of assay: Voltage-gated L-type calcium channel (Rattus norvegicus, UniProt P22002+Q02485+P27732)
- experimental details: Percentage decrease in blood pressure at a dose of 135 uM/kg for 0-6 h in spontaneously hypertensive rats.
- Format: functional, tissue-based
endpoint: Decrease in blood pressure

[[record]]
smiles_representation = "COc1ccc([C@@H]2Cc3c(cccc3C(F)(F)F)N(CCN(C)C(C)C)C(=O)[C@@H]2C)cc1"
endpoint = "Decrease in blood pressure"
value_observed = "18%"

[[record]]
smiles_representation = "CCCN(C)CCN1C(=O)[C@H](OC(C)=O)[C@H](c2ccc(OC)cc2)Cc2c1cccc2C(F)(F)F"
endpoint = "Decrease in blood pressure"
value_observed = "27%"

[[record]]
smiles_representation = "COc1ccccc1[C@@H]1Cc2cc(Cl)ccc2N(CCN(C)C)C(=O)[C@@H]1OC(C)=O"
endpoint = "Decrease in blood pressure"
value_observed = "2%"

[[record]]
smiles_representation = "COc1ccc([C@@H]2Cc3c(cccc3C(F)(F)F)N(CCN(C)C)C(=O)[C@@H]2C)cc1OC"
endpoint = "Decrease in blood pressure"
value_observed = "3%"

[[record]]
smiles_representation = "COc1ccc([C@@H]2Cc3c(ccc(Br)c3OC)N(CCN(C)C)C(=O)[C@@H]2C)cc1"
endpoint = "Decrease in blood pressure"
value_observed = "9%"

[[record]]
smiles_representation = "COc1ccc([C@@H]2Cc3c(C(N)=O)cccc3N(CCN(C)C)C(=O)[C@@H]2OC(C)=O)cc1"
endpoint = "Decrease in blood pressure"
value_observed = "13%"

[[record]]
smiles_representation = "COc1ccc([C@@H]2Cc3c(cccc3C(F)(F)F)N(CCN(C)C)C(=O)[C@@H]2Cc2ccccc2)cc1"
endpoint = "Decrease in blood pressure"
value_observed = "14%"

[[record]]
smiles_representation = "COc1cccc([C@@H]2Cc3cc(Cl)ccc3N(CCN(C)C)C(=O)[C@@H]2OC(C)=O)c1"
endpoint = "Decrease in blood pressure"
value_observed = "5%"

[[record]]
smiles_representation = "COc1ccc([C@@H]2Cc3ccccc3N(CCN(C)C)C(=O)[C@@H]2C)cc1"
endpoint = "Decrease in blood pressure"
value_observed = "6%"

[[record]]
smiles_representation = "COc1ccc([C@@H]2Cc3c(cccc3C(F)(F)F)N(CCNC(C)C)C(=O)[C@@H]2C)cc1"
endpoint = "Decrease in blood pressure"
value_observed = "17%"

[[record]]
smiles_representation = "COc1ccc([C@@H]2Cc3cc(OC(F)F)ccc3N(CCN(C)C)C(=O)[C@@H]2OC(C)=O)cc1"
endpoint = "Decrease in blood pressure"
value_observed = "12%"

[[record]]
smiles_representation = "CCC[C@H]1C(=O)N(CCN(C)C)c2cccc(C(F)(F)F)c2C[C@H]1c1ccc(OC)cc1"
endpoint = "Decrease in blood pressure"
value_observed = "14%"


Reference source for all entries: ChEMBL document CHEMBL1125383
